test: Plasma pharmacokinetics after single IV and PO dose; format: in vivo, male C57BL6/j mice; details: male, C57BL6/j, mouse, plasma, po, 20 mg/kg, PO 20 mg/kg, 8 hr; read-out: Plasma Concentration, individual mice

| Given smiles | concentration at 8 hr [ng/mL] |
| --- | --- |
| CC(C)Oc1ccc(CN2CCNCC2)cc1-n1c(CN2CCN(C(=O)COc3ccc(Cl)cc3)CC2)nc2ccccc2c1=O | 19.1 |

====

assay: Plasma pharmacokinetics after single IV and PO dose; type: in vivo, male C57BL6/j mice; settings: male, C57BL6/j, mouse, plasma, iv, 20 mg/kg, IV 20 mg/kg, 8 hr; read-out: Plasma Concentration, individual mice
Measurement label: concentration at 8 hr (ng/mL)

| Compound | Measurement label | Value reported |
| --- | --- | --- |
| CC(C)Oc1ccc(CN2CCNCC2)cc1-n1c(CN2CCN(C(=O)COc3ccc(Cl)cc3)CC2)nc2ccccc2c1=O [PE] | concentration at 8 hr | 147 |
